kinase still bound, per cent of control listing for selected compounds.
Target: MYLK4 (human) (UniProt Q86YV6)
Sequence (Q86YV6 whole entry, looked up): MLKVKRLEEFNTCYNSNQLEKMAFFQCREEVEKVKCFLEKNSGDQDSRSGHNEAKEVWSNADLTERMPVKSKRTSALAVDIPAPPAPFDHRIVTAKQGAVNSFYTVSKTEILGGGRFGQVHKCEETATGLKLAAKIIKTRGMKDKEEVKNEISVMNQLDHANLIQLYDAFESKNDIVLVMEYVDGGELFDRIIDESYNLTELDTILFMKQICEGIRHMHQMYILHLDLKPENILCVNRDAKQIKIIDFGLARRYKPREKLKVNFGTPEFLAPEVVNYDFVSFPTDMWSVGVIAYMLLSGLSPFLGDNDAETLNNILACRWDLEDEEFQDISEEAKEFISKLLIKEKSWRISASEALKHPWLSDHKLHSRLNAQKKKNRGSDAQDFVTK
Test: KINOMEscan competition binding
Conditions: compound 10.0 µM
Numeric only. Scale: %

SMILES TEXT: CCN1CCN(C(=O)Cc2ccc(Nc3ncc(F)c(Nc4ccc(C(=O)Nc5ccccc5Cl)cc4)n3)cc2)CC1
kinase still bound, per cent of control, %: 11
//
SMILES TEXT: COc1cc(N2CCN(C)CC2)ccc1Nc1ncc2c(n1)N(C)c1ccccc1C(=O)N2C
kinase still bound, per cent of control, %: 100
//
SMILES TEXT: O=C1NC(=O)/C(=C/c2ccc3nccc(-c4ccncc4)c3c2)S1
kinase still bound, per cent of control, %: 2.2
//
SMILES TEXT: CCN(CC)CCCCNc1ncc2c(n1)N(C)C(=O)N(c1c(Cl)c(OC)cc(OC)c1Cl)C2
kinase still bound, per cent of control, %: 100

Consider now this further compound.
Given "COc1cc2ncnc(-n3nc(-c4ccccn4)nc3N)c2cc1OC" , report its kinase still bound, per cent of control on MYLK4 (human) (UniProt Q86YV6).
25

---

Measured kinase still bound, per cent of control by item
Biological target: MAPK4 (human) (UniProt P31152)
Sequence (P31152 whole entry, looked up): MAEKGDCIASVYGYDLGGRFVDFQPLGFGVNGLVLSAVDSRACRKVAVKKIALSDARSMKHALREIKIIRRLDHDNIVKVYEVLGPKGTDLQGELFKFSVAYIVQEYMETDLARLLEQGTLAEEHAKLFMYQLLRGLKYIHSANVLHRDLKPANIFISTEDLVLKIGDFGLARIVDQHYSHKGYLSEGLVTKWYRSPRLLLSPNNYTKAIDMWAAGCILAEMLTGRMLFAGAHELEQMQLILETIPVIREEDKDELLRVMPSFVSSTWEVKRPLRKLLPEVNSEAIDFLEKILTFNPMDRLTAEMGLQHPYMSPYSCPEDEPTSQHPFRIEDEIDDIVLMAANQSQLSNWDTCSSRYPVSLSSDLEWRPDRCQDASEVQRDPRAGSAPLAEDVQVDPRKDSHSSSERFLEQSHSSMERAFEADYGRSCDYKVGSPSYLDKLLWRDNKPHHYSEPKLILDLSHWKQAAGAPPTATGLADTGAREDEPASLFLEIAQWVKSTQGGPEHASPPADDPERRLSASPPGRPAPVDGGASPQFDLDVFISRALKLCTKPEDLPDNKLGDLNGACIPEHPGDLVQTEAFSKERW
Test: KINOMEscan competition binding
Details: compound 10.0 µM

SMILES TEXT: O=C(Nc1cccc(Nc2ncc(Br)c(NCCc3cnc[nH]3)n2)c1)N1CCCC1
OBSERVED: 3.2%
--
SMILES TEXT: CCN(CC)CCCCNc1ncc2cc(-c3cc(OC)cc(OC)c3)c(NC(=O)NC(C)(C)C)nc2n1
OBSERVED: 100%
--
SMILES TEXT: CS(=O)(=O)N1CCN(Cc2cc3nc(-c4cccc5[nH]ncc45)nc(N4CCOCC4)c3s2)CC1
OBSERVED: 100%
--
SMILES TEXT: C=CC(=O)Nc1ccc(CN(C(=O)Nc2c(Cl)c(OC)cc(OC)c2Cl)c2cc(Nc3ccc(N4CCN(C)CC4)cc3)ncn2)cc1
OBSERVED: 100%

Given "C=CC(=O)Nc1cc(-n2c(=O)ccc3cnc4ccc(-c5cn[nH]c5)cc4c32)ccc1C" , respond with its kinase still bound, per cent of control.
100%

Check the records and state kinase still bound, per cent of control for "CCN(CC)CCCCNc1ncc2c(n1)N(C)C(=O)N(c1c(Cl)c(OC)cc(OC)c1Cl)C2"
100%

---

Below, each entry is listed alongside its reported kinase still bound, per cent of control.
Target: FGFR1 (human) (UniProt P11362)
Sequence (P11362 whole entry, looked up): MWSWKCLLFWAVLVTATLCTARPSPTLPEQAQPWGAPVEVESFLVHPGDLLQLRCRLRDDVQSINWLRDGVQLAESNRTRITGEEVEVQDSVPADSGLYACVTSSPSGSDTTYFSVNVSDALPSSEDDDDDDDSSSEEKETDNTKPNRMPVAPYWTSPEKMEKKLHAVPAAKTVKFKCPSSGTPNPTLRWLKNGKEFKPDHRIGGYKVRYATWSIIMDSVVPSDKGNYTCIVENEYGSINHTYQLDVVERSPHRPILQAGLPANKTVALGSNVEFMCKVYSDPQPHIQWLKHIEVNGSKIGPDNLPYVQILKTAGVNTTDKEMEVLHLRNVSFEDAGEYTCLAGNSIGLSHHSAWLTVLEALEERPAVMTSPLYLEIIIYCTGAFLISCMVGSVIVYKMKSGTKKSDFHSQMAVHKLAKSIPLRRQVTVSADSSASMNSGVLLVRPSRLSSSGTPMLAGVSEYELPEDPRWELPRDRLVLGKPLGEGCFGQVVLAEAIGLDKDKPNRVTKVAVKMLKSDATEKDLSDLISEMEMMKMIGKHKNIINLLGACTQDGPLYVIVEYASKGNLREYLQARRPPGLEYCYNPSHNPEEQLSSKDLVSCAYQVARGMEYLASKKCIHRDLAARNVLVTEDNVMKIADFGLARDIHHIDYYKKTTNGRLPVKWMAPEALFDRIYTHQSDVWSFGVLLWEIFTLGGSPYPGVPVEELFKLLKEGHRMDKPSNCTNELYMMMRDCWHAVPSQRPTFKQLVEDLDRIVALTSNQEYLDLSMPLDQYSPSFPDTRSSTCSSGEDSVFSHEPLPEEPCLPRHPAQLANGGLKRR
Experiment: KINOMEscan competition binding
Settings: compound 10.0 µM
Kindly answer with a numeric value in %, unit omitted.

Here's what some known entries look like.
SMILES TEXT: CCN1CCN(C(=O)Cc2ccc(Nc3ncc(F)c(Nc4ccc(C(=O)Nc5ccccc5Cl)cc4)n3)cc2)CC1
kinase still bound, per cent of control [%]: 14
//
SMILES TEXT: O=C(Nc1cccc(Nc2ncc(Br)c(NCCc3cnc[nH]3)n2)c1)N1CCCC1
kinase still bound, per cent of control [%]: 0.25
//
SMILES TEXT: N#CCNC(=O)c1ccc(-c2ccnc(Nc3ccc(N4CCOCC4)cc3)n2)cc1
kinase still bound, per cent of control [%]: 86
//
SMILES TEXT: C[C@@H](Oc1cc(-c2cnn(C3CCNCC3)c2)cnc1N)c1c(Cl)ccc(F)c1Cl
kinase still bound, per cent of control [%]: 46
//
SMILES TEXT: CNC(=O)c1ccc(Nc2cc(Nc3ccccc3S(=O)(=O)C(C)C)c3cc[nH]c3n2)nc1
kinase still bound, per cent of control [%]: 11
//
SMILES TEXT: CS(=O)(=O)N1CCN(Cc2cc3nc(-c4cccc5[nH]ncc45)nc(N4CCOCC4)c3s2)CC1
kinase still bound, per cent of control [%]: 100
//
SMILES TEXT: CCN(CC)CCCCNc1ncc2cc(-c3cc(OC)cc(OC)c3)c(NC(=O)NC(C)(C)C)nc2n1
kinase still bound, per cent of control [%]: 0.4
//
SMILES TEXT: COc1cc(N2CCN(C)CC2)ccc1Nc1ncc2c(n1)N(C)c1ccccc1C(=O)N2C
kinase still bound, per cent of control [%]: 100
//
SMILES TEXT: COc1cc2ncnc(-n3nc(-c4ccccn4)nc3N)c2cc1OC
kinase still bound, per cent of control [%]: 65
//
SMILES TEXT: O=C1NC(=O)/C(=C/c2ccc3nccc(-c4ccncc4)c3c2)S1
kinase still bound, per cent of control [%]: 81

Provide measured kinase still bound, per cent of control value, entry: "C=CC(=O)Nc1ccc(CN(C(=O)Nc2c(Cl)c(OC)cc(OC)c2Cl)c2cc(Nc3ccc(N4CCN(C)CC4)cc3)ncn2)cc1"
2.2

Item "CCN(CC)CCCCNc1ncc2c(n1)N(C)C(=O)N(c1c(Cl)c(OC)cc(OC)c1Cl)C2" : provide kinase still bound, per cent of control
0.25

Identify measured kinase still bound, per cent of control associated with "NC(=O)Nc1cc(-c2cccc(F)c2)sc1C(=O)N[C@@H]1CCCNC1"
1.3

---

Molecular target: DAPK2 (human)
Experiment: KINOMEscan competition binding
Settings: compound 10.0 µM
kinase still bound, per cent of control strictly less than 90% = Y. Otherwise N.

A selection of reference data follows.
SMILES TEXT: COc1cc2ncn(-c3cc(OCc4ccccc4C(F)(F)F)c(C(N)=O)s3)c2cc1OC
LABEL: Y
//
SMILES TEXT: CCN1CCN(C(=O)Cc2ccc(Nc3ncc(F)c(Nc4ccc(C(=O)Nc5ccccc5Cl)cc4)n3)cc2)CC1
LABEL: Y
//
SMILES TEXT: CNC(=O)c1ccc(Nc2cc(Nc3ccccc3S(=O)(=O)C(C)C)c3cc[nH]c3n2)nc1
LABEL: N
//
SMILES TEXT: C=CC(=O)Nc1cc(-n2c(=O)ccc3cnc4ccc(-c5cn[nH]c5)cc4c32)ccc1C
LABEL: Y
//
SMILES TEXT: Cc1n[nH]c2ccc(-c3cncc(OC[C@@H](N)Cc4c[nH]c5ccccc45)c3)cc12
LABEL: Y
//
SMILES TEXT: CCN(CC)CCCCNc1ncc2cc(-c3cc(OC)cc(OC)c3)c(NC(=O)NC(C)(C)C)nc2n1
LABEL: N

Regarding "COc1cc(N2CCN(C)CC2)ccc1Nc1ncc2c(n1)N(C)c1ccccc1C(=O)N2C" , kindly confirm whether its kinase still bound, per cent of control is beneath 90%.
N

---

Target: TYRO3 (human) (UniProt Q06418)
Sequence (Q06418 whole entry, looked up): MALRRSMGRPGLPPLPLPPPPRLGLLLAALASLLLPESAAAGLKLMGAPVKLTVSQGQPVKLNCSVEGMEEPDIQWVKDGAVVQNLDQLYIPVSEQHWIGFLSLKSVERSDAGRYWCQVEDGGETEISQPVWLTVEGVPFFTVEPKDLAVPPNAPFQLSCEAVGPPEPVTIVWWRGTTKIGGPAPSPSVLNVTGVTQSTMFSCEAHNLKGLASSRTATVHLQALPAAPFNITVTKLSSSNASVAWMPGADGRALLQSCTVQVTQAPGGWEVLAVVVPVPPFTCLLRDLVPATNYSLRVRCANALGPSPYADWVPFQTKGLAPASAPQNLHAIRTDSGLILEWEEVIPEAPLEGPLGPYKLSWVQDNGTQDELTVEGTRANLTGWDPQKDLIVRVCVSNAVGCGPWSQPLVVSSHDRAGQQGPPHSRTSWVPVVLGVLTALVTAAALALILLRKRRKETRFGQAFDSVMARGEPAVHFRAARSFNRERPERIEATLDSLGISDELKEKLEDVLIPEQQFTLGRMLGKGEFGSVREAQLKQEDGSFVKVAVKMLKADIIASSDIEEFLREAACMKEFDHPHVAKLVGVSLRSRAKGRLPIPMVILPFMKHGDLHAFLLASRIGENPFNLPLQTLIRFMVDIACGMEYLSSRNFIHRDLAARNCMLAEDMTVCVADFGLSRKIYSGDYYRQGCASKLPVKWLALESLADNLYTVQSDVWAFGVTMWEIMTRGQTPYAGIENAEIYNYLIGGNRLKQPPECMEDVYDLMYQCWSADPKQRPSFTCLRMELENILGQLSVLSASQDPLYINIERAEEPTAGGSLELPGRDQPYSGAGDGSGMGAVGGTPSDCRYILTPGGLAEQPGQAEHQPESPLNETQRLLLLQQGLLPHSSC
Test: KINOMEscan competition binding
Details: compound 10.0 µM
Label criterion met when kinase still bound, per cent of control is strictly below 80%; otherwise label criterion not met.

As a guide, the following entries are already answered.
SMILES TEXT: CCN(CC)CCCCNc1ncc2c(n1)N(C)C(=O)N(c1c(Cl)c(OC)cc(OC)c1Cl)C2
LABEL: criterion not met
//
SMILES TEXT: NC(=O)Nc1cc(-c2cccc(F)c2)sc1C(=O)N[C@@H]1CCCNC1
LABEL: criterion met
//
SMILES TEXT: CN(C)C/C=C/C(=O)Nc1ccc(C(=O)Nc2cccc(Nc3nccc(-c4cccnc4)n3)c2)cc1
LABEL: criterion not met
//
SMILES TEXT: O=C(Nc1cccc(Nc2ncc(Br)c(NCCc3cnc[nH]3)n2)c1)N1CCCC1
LABEL: criterion not met
//
SMILES TEXT: CNC(=O)c1ccc(Nc2cc(Nc3ccccc3S(=O)(=O)C(C)C)c3cc[nH]c3n2)nc1
LABEL: criterion met

API: query returns whether the compound falls strictly under 80% in kinase still bound, per cent of control. Query: "COc1cc(C(=O)N2CCC(N3CCN(C)CC3)CC2)ccc1Nc1ncc2c(n1)N(C)c1ccccc1C(=O)N2C"
criterion not met

Determine whether this compound shows kinase still bound, per cent of control lower than 80% (ties excluded): "N#CCNC(=O)c1ccc(-c2ccnc(Nc3ccc(N4CCOCC4)cc3)n2)cc1"
criterion not met

Consider "CS(=O)(=O)N1CCN(Cc2cc3nc(-c4cccc5[nH]ncc45)nc(N4CCOCC4)c3s2)CC1" . Does its kinase still bound, per cent of control lie strictly below 80%?
criterion not met

Given the entry "O=C1NC(=O)/C(=C/c2ccc3nccc(-c4ccncc4)c3c2)S1" , would its reported kinase still bound, per cent of control be below 80%?
criterion not met

Does the reported kinase still bound, per cent of control of "COc1cc2ncn(-c3cc(OCc4ccccc4C(F)(F)F)c(C(N)=O)s3)c2cc1OC" stay below 80%?
criterion met

---

The entries below are paired with their reported kinase still bound, per cent of control.
Target: CHUK (human) (UniProt O15111)
Sequence (O15111 whole entry, looked up): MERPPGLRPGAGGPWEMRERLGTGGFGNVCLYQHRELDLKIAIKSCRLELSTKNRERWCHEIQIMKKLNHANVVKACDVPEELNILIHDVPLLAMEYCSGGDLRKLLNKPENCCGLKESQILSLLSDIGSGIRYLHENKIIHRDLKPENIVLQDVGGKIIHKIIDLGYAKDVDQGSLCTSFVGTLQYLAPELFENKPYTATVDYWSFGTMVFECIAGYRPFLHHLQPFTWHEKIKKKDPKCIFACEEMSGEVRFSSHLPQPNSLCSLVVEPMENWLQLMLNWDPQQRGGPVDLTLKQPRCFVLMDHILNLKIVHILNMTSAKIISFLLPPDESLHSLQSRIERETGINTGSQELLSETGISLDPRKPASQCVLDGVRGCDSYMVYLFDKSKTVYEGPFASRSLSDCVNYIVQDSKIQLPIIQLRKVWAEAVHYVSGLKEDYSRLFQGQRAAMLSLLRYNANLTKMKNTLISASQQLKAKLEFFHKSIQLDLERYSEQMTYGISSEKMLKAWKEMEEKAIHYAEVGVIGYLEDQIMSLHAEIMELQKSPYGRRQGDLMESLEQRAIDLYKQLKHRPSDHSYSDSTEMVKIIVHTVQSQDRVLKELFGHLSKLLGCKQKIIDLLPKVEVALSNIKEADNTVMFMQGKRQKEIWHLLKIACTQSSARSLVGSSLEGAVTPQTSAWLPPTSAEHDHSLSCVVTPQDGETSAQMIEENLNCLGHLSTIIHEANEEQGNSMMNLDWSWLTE
Test: KINOMEscan competition binding
Conditions: compound 10.0 µM
Note: unit % is implicit; provide only the numeric part.

The following compounds have reported results that may help.
SMILES TEXT: CS(=O)(=O)N1CCN(Cc2cc3nc(-c4cccc5[nH]ncc45)nc(N4CCOCC4)c3s2)CC1
ASSAYED SYSTEM: CHUK (human) (UniProt O15111)
READOUT NAME: kinase still bound, per cent of control
OBSERVED: 100

SMILES TEXT: C=CC(=O)Nc1ccc(CN(C(=O)Nc2c(Cl)c(OC)cc(OC)c2Cl)c2cc(Nc3ccc(N4CCN(C)CC4)cc3)ncn2)cc1
ASSAYED SYSTEM: CHUK (human) (UniProt O15111)
READOUT NAME: kinase still bound, per cent of control
OBSERVED: 100

SMILES TEXT: COc1ccc(N(C(=O)Oc2c(C)cccc2C)c2ccnc(Nc3ccc(N4CCN(C)CC4)cc3)n2)c(OC)c1
ASSAYED SYSTEM: CHUK (human) (UniProt O15111)
READOUT NAME: kinase still bound, per cent of control
OBSERVED: 92

Then this compound:
For the compound "COc1cc2ncnc(-n3nc(-c4ccccn4)nc3N)c2cc1OC" , report kinase still bound, per cent of control.
44
